- systemUnderTest: T1, recombinant human CD25 (IL2-Rα) (human, UniProt P01589 22-213, limits assumed)
- T1 construct: Bought recombinant soluble protein; also called IL2 receptor α chain; recombinant soluble human CD25
- T1 sequence (looked up): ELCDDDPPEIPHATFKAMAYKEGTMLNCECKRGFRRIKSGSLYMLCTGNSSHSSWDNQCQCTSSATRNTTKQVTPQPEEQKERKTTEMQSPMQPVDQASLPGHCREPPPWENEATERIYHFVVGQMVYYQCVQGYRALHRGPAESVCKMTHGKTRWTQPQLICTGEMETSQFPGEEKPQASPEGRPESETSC
- experimentSummary: competitive ELISA on plate-coated CD25; competitor biotinylated daclizumab
experimentalEndpoint: fold affinity over the parental antibody

>  <binder>
daclizumab VH variant QRKFH (antibody, IgG1, name in Kabat numbering, V domains shown, VH library clone, soluble IgG1) VH: QVQLVQSGAEVKKPGSSVKVSCKASGYTFTSYRMHWVRQAPGQGLEWIGYIQPRKGFTHYNQKFKDKATITADESTNTAYMELSSLRSEDTAVYYCARGGGVFDYWGQGTLVTVSS VL: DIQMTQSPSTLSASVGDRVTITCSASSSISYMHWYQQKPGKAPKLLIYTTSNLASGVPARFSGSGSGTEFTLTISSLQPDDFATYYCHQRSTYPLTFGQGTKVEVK

>  <experimentalEndpoint>
fold affinity over the parental antibody

>  <valueReported>
~10 fold

$$$$
>  <binder>
daclizumab VH variant SNKYL (antibody, IgG1, name in Kabat numbering, V domains shown, VH library clone, soluble IgG1) VH: QVQLVQSGAEVKKPGSSVKVSCKASGYTFTSYRMHWVRQAPGQGLEWIGYISPNKGYTLYNQKFKDKATITADESTNTAYMELSSLRSEDTAVYYCARGGGVFDYWGQGTLVTVSS VL: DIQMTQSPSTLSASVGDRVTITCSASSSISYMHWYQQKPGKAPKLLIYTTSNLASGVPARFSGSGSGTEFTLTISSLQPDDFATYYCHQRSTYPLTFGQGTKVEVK

>  <experimentalEndpoint>
fold affinity over the parental antibody

>  <valueReported>
~10 fold

$$$$
>  <binder>
daclizumab VH variant RKGFE (antibody, IgG1, name in Kabat numbering, V domains shown, VH library clone, soluble IgG1) VH: QVQLVQSGAEVKKPGSSVKVSCKASGYTFTSYRMHWVRQAPGQGLEWIGYIRPKGGFTEYNQKFKDKATITADESTNTAYMELSSLRSEDTAVYYCARGGGVFDYWGQGTLVTVSS VL: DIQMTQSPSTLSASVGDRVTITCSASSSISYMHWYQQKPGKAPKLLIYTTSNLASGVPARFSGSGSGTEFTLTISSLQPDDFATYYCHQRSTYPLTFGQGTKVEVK

>  <experimentalEndpoint>
fold affinity over the parental antibody

>  <valueReported>
~10 fold

$$$$

Entry source: patent US20150010538A1
